- Tested on: HOP-62
- assayDetails: NCI 60 cell-line test
- Assay type: cell-based, human
- statedConditions: HOP-62 (Non-Small Cell Lung Cancer); read-out: LC50 (the source's name)
measuredQuantity: CC50

[
  {
    "molecule": "CC1(C)C2CC[C@@]1(CS(=O)(=O)N(C1CCCCC1)C1CCCCC1)C(O)C2 (stereo partly shown)",
    "systemTested": "HOP-62",
    "measuredQuantity": "CC50",
    "result": "> 100 µM"
  }
]

---

- System: MDA-MB-231/ATCC
- assayDetails: NCI 60 cell-line test
- Assay type: cell-based, human
- statedConditions: MDA-MB-231/ATCC (Breast Cancer); read-out: G150

[
  {
    "compound": "CC1(C)C2CC[C@@]1(CS(=O)(=O)N(C1CCCCC1)C1CCCCC1)C(O)C2 (stereo partly shown)",
    "IC50, µM": 16.9
  }
]
